The origin of these recorded values is ChEMBL document CHEMBL3421553.

Assay: Aqueous solubility of the compound in phosphate buffer at pH 7.4
Format: physicochemical
observation type: solubility

Example entries begin here.
molecule smiles	result
COc1ccc(/C=C/c2ccc(-n3[se]c4ccccc4c3=O)cc2)cc1OC	> 100 µM
COc1cc(/C=C/c2ccc(-n3[se]c4cc(F)ccc4c3=O)cc2)cc(OC)c1	< 10 µM

Request: Entry under review: COc1cc(/C=C/c2ccc(-n3[se]c4cc(Cl)ccc4c3=O)cc2)cc(OC)c1 . Reported solubility?
Result: < 10 µM

Request: Entry under review: COc1cc(/C=C/c2ccc(-n3[se]c4ccc(Cl)cc4c3=O)cc2)cc(OC)c1 . Reported solubility?
Result: < 50 µM

Request: Entry under review: COc1ccc(/C=C/c2ccc(-n3[se]c4ccc(Cl)cc4c3=O)cc2)cc1OC . Reported solubility?
Result: < 20 µM

Request: Entry under review: COc1cc(/C=C/c2ccc(-n3[se]c4ccccc4c3=O)cc2)cc(OC)c1 . Reported solubility?
Result: > 100 µM

Request: Entry under review: COc1ccc(/C=C/c2ccc(N3Cc4ccccc4C3=O)cc2)cc1OC . Reported solubility?
Result: < 10 µM
